Biological target: Interstitial collagenase (Homo sapiens)
Sequence (P03956 whole entry): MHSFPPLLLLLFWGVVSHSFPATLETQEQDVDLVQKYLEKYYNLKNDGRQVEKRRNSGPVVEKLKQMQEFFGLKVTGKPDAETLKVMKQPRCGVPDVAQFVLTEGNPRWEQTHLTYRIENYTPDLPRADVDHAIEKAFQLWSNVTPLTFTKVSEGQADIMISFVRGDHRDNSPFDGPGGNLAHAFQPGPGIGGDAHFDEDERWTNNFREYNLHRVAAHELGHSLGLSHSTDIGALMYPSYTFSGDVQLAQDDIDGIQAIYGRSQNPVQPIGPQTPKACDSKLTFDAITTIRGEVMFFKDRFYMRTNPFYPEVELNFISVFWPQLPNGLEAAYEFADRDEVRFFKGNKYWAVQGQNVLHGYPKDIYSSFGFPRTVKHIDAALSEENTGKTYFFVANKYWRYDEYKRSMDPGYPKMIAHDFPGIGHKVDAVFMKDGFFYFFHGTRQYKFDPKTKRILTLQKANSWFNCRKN
Test: Inhibition of human recombinant MMP1 catalytic domain using Dnp-Pro-beta-cyclohexyl-Ala-Gly-Cys(Me)-His-Lys-(Nma)-NH2 as substrate preincubated with enzyme for 30 mins prior to substrate addition monitored for 60 mins by fluorometric assay
Label scheme for IC50: low interval (below 2 µM), middle interval (2 µM to below 10 µM), high interval (10 µM or more)

compound=COc1ccc(C[C@@H](OC(=O)/C=C/c2ccc(OCc3ccccc3)c(OCc3ccccc3)c2)C(=O)O)cc1OC experimental_system="Interstitial collagenase (Homo sapiens)" class="low interval"
compound="COc1ccc(CC(OC(=O)/C=C/c2ccc3c(c2)OCC3)C(=O)O)cc1OC (stereo unspecified)" experimental_system="Interstitial collagenase (Homo sapiens)" class="high interval"
compound="C=CCOC(=O)C(Cc1ccc(OC)c(OC)c1)OC(=O)/C=C/c1ccc(Br)cc1 (stereo unspecified)" experimental_system="Interstitial collagenase (Homo sapiens)" class="high interval"
compound="COc1ccc(CC(OC(=O)/C=C/c2ccc(C(F)(F)F)cc2)C(=O)O)cc1OC (stereo unspecified)" experimental_system="Interstitial collagenase (Homo sapiens)" class="high interval"
compound=COc1ccc(C[C@H](OC(=O)/C=C/c2ccc(OCc3ccccc3)c(OCc3ccccc3)c2)C(=O)O)cc1OC experimental_system="Interstitial collagenase (Homo sapiens)" class="low interval"
compound="COc1ccc(CC(OC(=O)/C=C/c2ccccc2)C(=O)O)cc1OC (stereo unspecified)" experimental_system="Interstitial collagenase (Homo sapiens)" class="high interval"
compound="COc1ccc(CC(OC(=O)/C=C/c2ccc(Br)cc2)C(=O)O)cc1OC (stereo unspecified)" experimental_system="Interstitial collagenase (Homo sapiens)" class="high interval"
compound="COc1ccc(CC(OC(=O)/C=C/c2ccc3c(c2)OCC3)C(=O)NO)cc1OC (stereo unspecified)" experimental_system="Interstitial collagenase (Homo sapiens)" class="high interval"
compound="COc1ccc(CC(OC(=O)/C=C/c2ccc(OCc3ccccc3)c(OCc3ccccc3)c2)C(=O)O)cc1OC (stereo unspecified)" experimental_system="Interstitial collagenase (Homo sapiens)" class="middle interval"
compound="COc1ccc(CC(OC(=O)/C=C/c2ccc(-c3ccccc3)cc2)C(=O)NO)cc1OC (stereo unspecified)" experimental_system="Interstitial collagenase (Homo sapiens)" class="middle interval"
compound="COc1ccc(CC(OC(=O)/C=C/c2ccc(OCc3ccccc3)c(OCc3ccccc3)c2)C(=O)NO)cc1OC (stereo unspecified)" experimental_system="Interstitial collagenase (Homo sapiens)" class="middle interval"
